Each recorded value in this set is attributed to ChEMBL document CHEMBL2176989.

// reported pKi per item
- experimental.target: Voltage-gated inwardly rectifying potassium channel KCNH2 (Homo sapiens, UniProt Q12809)
- Sequence (Q12809 whole entry): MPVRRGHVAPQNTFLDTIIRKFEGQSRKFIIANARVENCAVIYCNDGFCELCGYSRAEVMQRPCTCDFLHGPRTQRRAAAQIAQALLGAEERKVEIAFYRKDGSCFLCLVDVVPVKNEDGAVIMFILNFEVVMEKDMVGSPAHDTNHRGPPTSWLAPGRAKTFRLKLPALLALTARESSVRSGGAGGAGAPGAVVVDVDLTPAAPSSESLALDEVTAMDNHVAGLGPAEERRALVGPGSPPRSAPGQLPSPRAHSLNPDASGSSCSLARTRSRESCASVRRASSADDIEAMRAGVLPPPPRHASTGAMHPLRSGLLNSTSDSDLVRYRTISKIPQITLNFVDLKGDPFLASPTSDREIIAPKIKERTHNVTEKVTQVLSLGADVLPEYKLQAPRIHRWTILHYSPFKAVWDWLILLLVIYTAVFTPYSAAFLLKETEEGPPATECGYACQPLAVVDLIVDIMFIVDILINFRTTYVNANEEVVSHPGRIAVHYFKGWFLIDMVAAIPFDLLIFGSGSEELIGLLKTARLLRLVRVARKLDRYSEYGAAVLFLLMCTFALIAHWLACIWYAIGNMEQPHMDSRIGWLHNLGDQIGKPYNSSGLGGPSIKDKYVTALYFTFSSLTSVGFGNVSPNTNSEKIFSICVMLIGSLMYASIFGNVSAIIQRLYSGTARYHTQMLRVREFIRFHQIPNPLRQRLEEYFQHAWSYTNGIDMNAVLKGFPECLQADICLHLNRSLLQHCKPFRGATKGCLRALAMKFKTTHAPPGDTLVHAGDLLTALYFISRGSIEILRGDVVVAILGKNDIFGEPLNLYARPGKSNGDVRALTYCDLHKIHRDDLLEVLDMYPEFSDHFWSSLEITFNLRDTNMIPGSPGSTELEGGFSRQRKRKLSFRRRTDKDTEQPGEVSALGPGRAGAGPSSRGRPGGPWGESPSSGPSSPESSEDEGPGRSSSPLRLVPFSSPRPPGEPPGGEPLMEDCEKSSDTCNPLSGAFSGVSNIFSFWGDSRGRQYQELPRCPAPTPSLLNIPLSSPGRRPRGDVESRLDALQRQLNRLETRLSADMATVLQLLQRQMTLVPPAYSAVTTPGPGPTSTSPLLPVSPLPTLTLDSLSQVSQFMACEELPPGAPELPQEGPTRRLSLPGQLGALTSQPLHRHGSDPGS
Just the number, please; pKi means minus log10 of the concentration in mol/L.

[[record]]
compound_string = "COc1ccc(S(=O)(=O)n2cc(C)c3cc(Cl)ccc32)cc1NC1CCN(C)CC1"
observed_measurement = 6.10


Let us move to another entry and its pKi.
Result for COc1ccc(S(=O)(=O)n2cc(C)c3cc(F)ccc32)cc1NC1CCN(C)CC1 , tested on Voltage-gated inwardly rectifying potassium channel KCNH2 (Homo sapiens, UniProt Q12809), pKi: 6.02

###

- experimental.target: 5-hydroxytryptamine receptor 6 (Homo sapiens) (UniProt P50406)
- Sequence (P50406 whole entry): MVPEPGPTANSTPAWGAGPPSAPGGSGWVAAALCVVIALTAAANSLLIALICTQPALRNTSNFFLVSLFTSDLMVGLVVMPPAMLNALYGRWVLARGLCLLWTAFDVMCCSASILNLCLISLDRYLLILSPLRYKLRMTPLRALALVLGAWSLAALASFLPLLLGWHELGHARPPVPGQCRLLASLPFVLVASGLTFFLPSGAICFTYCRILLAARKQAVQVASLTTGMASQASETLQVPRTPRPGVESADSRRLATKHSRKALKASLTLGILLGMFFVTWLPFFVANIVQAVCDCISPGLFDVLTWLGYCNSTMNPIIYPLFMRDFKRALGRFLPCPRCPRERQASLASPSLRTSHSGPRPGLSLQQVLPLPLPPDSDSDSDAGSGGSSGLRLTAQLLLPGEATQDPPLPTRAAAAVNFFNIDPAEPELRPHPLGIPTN
- test.protocol: Antagonist activity at human recombinant 5HT6 receptor expressed in CHO cells assessed as inhibition of 5HT-induced luciferase activity after 4 hrs by reporter gene assay relative to control
- Assay type: functional, cell-based
readout: Imax (%)
Numbers only here, please. The scale is %.

[[record]]
compound_string = "COc1ccc(S(=O)(=O)n2cc(C)c3cc(F)ccc32)cc1NC1CCN(C)CC1"
experimental_target = "5-hydroxytryptamine receptor 6 (Homo sapiens) (UniProt P50406)"
readout = "Imax"
observed_measurement = 100

[[record]]
compound_string = "CCc1ccc(S(=O)(=O)n2ccc3ccc(Cl)cc32)cc1NC1CCN(C)CC1"
experimental_target = "5-hydroxytryptamine receptor 6 (Homo sapiens) (UniProt P50406)"
readout = "Imax"
observed_measurement = 98

[[record]]
compound_string = "COc1ccc(S(=O)(=O)N2CCCc3ccccc32)cc1NC1CCN(C)CC1"
experimental_target = "5-hydroxytryptamine receptor 6 (Homo sapiens) (UniProt P50406)"
readout = "Imax"
observed_measurement = 100


GET /value?item= COc1ccc(S(=O)(=O)n2ccc3cc(Cl)cnc32)cc1NC1CCN(C)CC1 &field=Imax returns 98

GET /value?item= COc1ccc(S(=O)(=O)N2CCOc3ccc(Cl)cc32)cc1NC1CCN(C)CC1 &field=Imax returns 100

GET /value?item= COc1ccc2ccn(S(=O)(=O)c3ccc(OC)c(NC4CCN(C)CC4)c3)c2c1.O=P(O)(O)O &field=Imax returns 100

GET /value?item= COc1ccc2c(ccn2S(=O)(=O)c2ccc(F)c(NC3CCN(C)CC3)c2)c1 &field=Imax returns 95

GET /value?item= CCc1ccc(S(=O)(=O)n2ccc3ccccc32)cc1NC1CCN(C)CC1 &field=Imax returns 99

GET /value?item= COc1ccc(S(=O)(=O)n2cc(C)c3cc(Cl)cnc32)cc1NC1CCNCC1 &field=Imax returns 97

GET /value?item= COc1ccc2c(ccn2S(=O)(=O)c2ccc(OC)c(NC3CCN(C)CC3)c2)c1 &field=Imax returns 96

GET /value?item= COc1cnc2c(c1)c(C)cn2S(=O)(=O)c1ccc(OC)c(NC2CCN(C)CC2)c1 &field=Imax returns 95

GET /value?item= COc1ccc2c(C)cn(S(=O)(=O)c3ccc(OC)c(NC4CCN(C)CC4)c3)c2c1 &field=Imax returns 100

GET /value?item= CN1CCC(Nc2cccc(S(=O)(=O)n3ccc4ccccc43)c2)CC1 &field=Imax returns 92

###

- experimental.target: 5-hydroxytryptamine receptor 6 (Homo sapiens) (UniProt P50406)
- test.protocol: Antagonist activity at human recombinant 5HT6 receptor expressed in CHO cells assessed as inhibition of 5HT-induced luciferase activity after 4 hrs by reporter gene assay
- Format: functional, cell-based
Rule: Kb under 2 nM gives FALSE, otherwise TRUE.

Before answering, review these 4 worked examples.
[[record]]
compound_string = "COc1ccc(S(=O)(=O)n2cc(C)c3cc(Cl)cnc32)cc1NC1CCN(C)CC1"
experimental_target = "5-hydroxytryptamine receptor 6 (Homo sapiens) (UniProt P50406)"
label_class = "FALSE"

[[record]]
compound_string = "COc1ccc2c(ccn2S(=O)(=O)c2cccc(NC3CCN(C)CC3)c2)c1"
experimental_target = "5-hydroxytryptamine receptor 6 (Homo sapiens) (UniProt P50406)"
label_class = "TRUE"

[[record]]
compound_string = "COc1ccc2c(C)cn(S(=O)(=O)c3ccc(OC)c(NC4CCN(C)CC4)c3)c2c1"
experimental_target = "5-hydroxytryptamine receptor 6 (Homo sapiens) (UniProt P50406)"
label_class = "FALSE"

[[record]]
compound_string = "COc1ccc(S(=O)(=O)n2ccc3ccc(F)cc32)cc1NC1CCN(C)CC1"
experimental_target = "5-hydroxytryptamine receptor 6 (Homo sapiens) (UniProt P50406)"
label_class = "FALSE"


Please look at the following compound next.
-- ask Does the compound COc1ccc(S(=O)(=O)n2ccc3ccccc32)cc1NC1CCN(C)CC1 have recorded Kb that is 2 nM or more?
-- reply FALSE
